Cited source for all entries: ChEMBL document CHEMBL5149978

Measurement Type: IC50 (µM)
Give your result in µM as a bare value.

Param readout = IC50; param system = Apoptosis regulator Bcl-2 (Homo sapiens); param query = CCCn1cc(/C=N/N=C2\C(=O)Nc3ccc(C)cc32)c2ccccc21 ; response: value 0.46

* * *

# Target Or Test System: Platelet-derived growth factor receptor beta (Homo sapiens, UniProt P09619)
# Sequence (P09619 whole entry): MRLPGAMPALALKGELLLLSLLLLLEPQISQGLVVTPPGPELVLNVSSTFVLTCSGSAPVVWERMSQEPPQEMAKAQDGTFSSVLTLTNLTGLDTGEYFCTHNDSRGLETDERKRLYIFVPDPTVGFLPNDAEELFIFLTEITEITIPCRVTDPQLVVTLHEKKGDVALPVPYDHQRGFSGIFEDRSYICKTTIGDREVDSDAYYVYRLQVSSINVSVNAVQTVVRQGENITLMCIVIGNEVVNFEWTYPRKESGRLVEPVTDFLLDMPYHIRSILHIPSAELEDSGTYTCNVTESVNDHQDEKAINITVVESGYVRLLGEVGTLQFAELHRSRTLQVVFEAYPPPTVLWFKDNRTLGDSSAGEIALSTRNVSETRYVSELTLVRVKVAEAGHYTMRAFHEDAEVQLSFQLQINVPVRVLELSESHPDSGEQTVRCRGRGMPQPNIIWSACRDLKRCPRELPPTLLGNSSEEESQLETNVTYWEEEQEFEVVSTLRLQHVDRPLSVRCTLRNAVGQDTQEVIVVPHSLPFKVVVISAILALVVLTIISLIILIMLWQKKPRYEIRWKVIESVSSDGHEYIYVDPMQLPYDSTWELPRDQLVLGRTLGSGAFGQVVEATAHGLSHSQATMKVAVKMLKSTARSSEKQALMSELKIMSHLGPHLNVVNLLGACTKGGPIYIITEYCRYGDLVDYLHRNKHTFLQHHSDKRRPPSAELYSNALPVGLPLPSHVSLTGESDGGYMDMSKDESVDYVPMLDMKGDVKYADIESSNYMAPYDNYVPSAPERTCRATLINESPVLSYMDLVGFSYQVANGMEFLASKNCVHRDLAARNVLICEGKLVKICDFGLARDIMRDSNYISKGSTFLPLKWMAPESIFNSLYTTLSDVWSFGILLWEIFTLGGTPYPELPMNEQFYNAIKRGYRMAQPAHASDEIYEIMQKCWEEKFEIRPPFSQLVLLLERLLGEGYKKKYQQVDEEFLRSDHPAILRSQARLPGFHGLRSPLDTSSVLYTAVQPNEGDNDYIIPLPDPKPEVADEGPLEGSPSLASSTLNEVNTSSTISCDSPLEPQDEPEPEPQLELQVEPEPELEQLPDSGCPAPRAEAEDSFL
Measurement Type: pIC50
# log scale: pIC50 equals minus log10 of the concentration in mol/L

Which pIC50 is listed for COc1ccc2c(c1)/C(=N\Nc1nnc3n1N=C(c1ccccc1)CS3)C(=O)N2 ? 6.43

* * *

# Assay Method Text: Inhibition of tyrosine kinase receptor (unknown origin) by ELISA
# Design: species or system Homo sapiens
Measurement Type: IC50 (nM)
Give your result in nM as a bare value.

Which IC50 is listed for COc1cccc(C[S+]([O-])/C=C2\C(=O)Nc3ccccc32)c1 (configuration not stated) ? 2230

Which IC50 is listed for O=C1Nc2ccccc2/C1=C/[S+]([O-])Cc1ccc(Br)cc1 (configuration not stated) ? 1340

* * *

Kindly supply the reported IC50 values for the records listed here.
# Tested on: MDA-MB-231
# Assay Method Text: Anti-proliferative activity against human MDA-MB-231 cells measured after 48 hrs by MTT assay
# Assay type: functional, cell-based
# Assay Context: MDA-MB-231, 48 h
Give your result in µM as a bare value.

Which IC50 is listed for N#CC1=C(c2ccccc2)Nc2c(c(-c3cccs3)nn2-c2ccccc2)C12C(=O)Nc1ccc(Br)cc12 (configuration not stated) ? 6.7

Which IC50 is listed for N#CC1=C(c2ccccc2)Nc2c(c(-c3cccs3)nn2-c2ccccc2)C12C(=O)Nc1ccc(Cl)cc12 (configuration not stated) ? 6.4
